# test_target: Homeobox protein Meis1 (Homo sapiens)
# procedure_text: Inhibition of MEIS1 (unknown origin) expressed in HEK293T cells co-expressing MEIS-Luc-pGL2 assessed as luciferase activity at 10 uM incubated for 48 hrs by luciferase reporter assay related to […] control
# Type: cell-based
# Design: scale not given: the % may be the effect or the level left
metric_name: Activity (%)

test_smiles=Cc1cccc(NC(=O)c2ccc(OCC(=O)NCc3cccc(Cl)c3Cl)cc2)c1C value_unit=% value=161

P. Cc1cccc(C)c1NC(=O)c1ccc(OCC(=O)NCc2ccccc2Cl)cc1
Q. Cc1cccc(NC(=O)c2ccc(OCC(=O)NCc3cccc(C(F)(F)F)c3)cc2)c1C
R. COc1ccc(CNC(=O)COc2ccc(C(=O)Nc3cccc(Cl)c3)cc2)cc1
S. COc1ccc(CNC(=O)COc2ccc(C(=O)Nc3cccc(C(F)(F)F)c3)cc2)cc1
[in] Ascending by Activity, please: list the molecules accordingly. // ordering of labels required in reply
[out] S, R, P, Q
(S: 1%, R: 5%, P: 58%, Q: 106%)
